Could you please report measured IC50 for the items listed next?
system: MMP-13CD (catalytic domain of collagenase 3) (Homo sapiens)
assayOverview: Thiopeptolide hydrolysis assay, MMP-13;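 also: inhibition of enzymatic thiopeptolide substrate cleavage (100 µM) in pH 6.0 MES buffer with CaCl2 and DTNB, comparing hydrolysis with versus without inhibitor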
experimentalContext: MMP13 IC50 μM, Table IVb
Answers are plain numbers, in µM.

>>> observedvalue("COc1ccc(CNC(=O)c2cnc3c(c2)c(=O)n(Cc2ccc(C(=O)O)cc2)c(=O)n3C)cc1")
0.0016
>>> observedvalue("CNS(=O)(=O)c1ccc(Cn2c(=O)c3cc(C(=O)NCc4ccc(OC)cc4)ccc3n(C)c2=O)cc1")
0.0044
>>> observedvalue("COc1ccc(CNC(=O)c2cnc3c(c2)c(=O)n(Cc2ccc(C#N)cc2)c(=O)n3C)cc1")
0.016
>>> observedvalue("COC(=O)/C=C/Cn1c(=O)c2cc(C(=O)NCc3ccc(OC)cc3)ccc2n(C)c1=O")
0.315
>>> observedvalue("CCn1c(=O)n(Cc2ccc(C(=O)OC)cc2)c(=O)c2cc(C(=O)NCc3ccc(OC(F)(F)F)cc3)ccc21")
0.34

For each of the items listed, what is its IC50?
1. CSc1ccc(CNC(=O)c2ccc3c(c2)c(=O)n(Cc2ccc(C(=O)O)cc2)c(=O)n3C)cc1
2. COc1ccc(CNC(=O)c2ccc3c(c2)c(=O)n(Cc2ccc(CC(=O)N(C)C)cc2)c(=O)n3C)cc1

1. 0.0029
2. 0.008
